Catalogue of GI50 readings, one per entry.
# Test system: MDA-MB-231 breast
# assayComment: NCI tumour cell line growth inhibition, 48 h
experimentalEndpoint: GI50

{"givenSmiles": "O=P([O-])(O)OP(=O)([O-])O.[NH-][C@@H]1CCCC[C@H]1[NH-].[Pt+4]", "result": "> 100 µM"}
{"givenSmiles": "O=C(Nc1cc[c]([Sb](=[O])([OH])[OH])cc1)c1ccccc1", "result": "> 100 µM"}
{"givenSmiles": "COc1ccc(C2=C(c3ccc(OC)c(OC)c3)C(=O)OC2)cc1", "result": "0.682 µM"}
{"givenSmiles": "CC1(C)CC(n2cnc(-c3ccc(F)cc3)c2-c2ccnc(N)n2)CC(C)(C)N1", "result": "> 22.7 µM"}
{"givenSmiles": "CC[Si](CC)(CC)OC[C@]1([C@@H]2COC(C)(C)O2)CC=CC(=O)O1", "result": "51.1 µM"}
{"givenSmiles": "Cc1cc(N2CCN(c3ccnc4cc(Cl)ccc34)CC2)nc(NC2CCCCC2)n1", "result": "2 µM"}
{"givenSmiles": "Nc1ccc2c3c(n(CCCCl)c(=O)c2c1)-c1cc2c(cc1C3=O)OCO2", "result": "60.1 µM"}
{"givenSmiles": "O=c1[nH]ccc2nc(N3CCC(O)CC3)nc(Nc3cccc(C(F)(F)F)c3)c12", "result": "12.2 µM"}
{"givenSmiles": "O=S(=O)(c1ccc(N=C2NN=C(c3c[nH]c4ccccc34)CS2)cc1)N1CCOCC1", "result": "45.3 µM"}

###

# System: SN12C renal
# assayComment: NCI tumour cell line growth inhibition, 48 h

{"molecule": "CC(=O)NC1C(O)C(O)C(CO)OC1n1ncc(=O)[nH]c1=O (stereo unspecified)", "TGI": "> 100 µM"}
{"molecule": "O=C([O][Hg][CH2]C1COCC([CH2][Hg][O]C(=O)c2ccccc2)O1)c1ccccc1 (stereo unspecified)", "TGI": "32.2 µM"}
{"molecule": "O=C(Nc1cc[c]([Sb](=[O])([OH])[OH])cc1)c1ccccc1", "TGI": "> 100 µM"}
{"molecule": "O=C1c2c(ccc3c2CCC3)CC12Cc1cc3c(cc1C2)CCC3", "TGI": "> 100 µM"}
{"molecule": "CCCCCC(CO)C(O)(C(F)(F)F)C(F)(F)F (stereo unspecified)", "TGI": "> 10 µM"}
{"molecule": "O=c1oc2ccccc2nc1/C=C(\\O)c1ccc([N+](=O)[O-])cc1", "TGI": "> 100 µM"}
{"molecule": "COc1c(Cl)c2c(c(OC)c1OC)-c1ccc(SC)c(=O)cc1[C@@H](NC(=O)OCC(F)(F)F)CC2", "TGI": "> 100 µM"}
{"molecule": "CCOP(=O)(OCC)c1ccc(=O)[nH]c1-c1cccs1", "TGI": "> 100 µM"}
{"molecule": "O=C1c2cc([N+](=O)[O-])ccc2-c2cccc(F)c21", "TGI": "> 100 µM"}
{"molecule": "CC(=O)/C(=C\\C1=CCCO1)C(=O)Nc1ccccc1C", "TGI": "> 100 µM"}
{"molecule": "Cc1occc1C(=S)Nc1ccc(Cl)c(/C=N/OC(C)C)c1", "TGI": "35.1 µM"}
{"molecule": "CC(=O)OCC1OC(N2C(C)=C(C(C)=O)C(c3ccco3)C(C#N)=C2S)C(OC(C)=O)C(OC(C)=O)C1OC(C)=O (stereo unspecified)", "TGI": "> 100 µM"}
{"molecule": "COc1cc2c(cc1OCCCCCCN1CCN(c3ncnc4ccccc34)CC1)N=CC1CCCN1C2=O (stereo unspecified)", "TGI": "6.47 µM"}
{"molecule": "COc1ccc2c(c1)OC1=C(C(=O)OC1)C2c1cc(OC)c(OC)c(OC)c1 (stereo unspecified)", "TGI": "> 100 µM"}
{"molecule": "CC(=O)Nc1c(C)ccc2c1C(=O)c1ccccc1C2=O", "TGI": "> 100 µM"}
{"molecule": "Cc1cc(-c2nnc(N)nc2-c2ccc(F)cc2)cc(Cl)n1", "TGI": "> 100 µM"}
{"molecule": "NC(=O)c1ccc2c(-c3ccnc(NCCCO)n3)c(-c3ccc(F)cc3)nn2c1", "TGI": "> 25 µM"}
{"molecule": "CCC1=CC2Cc3nc4cc(Cl)ccc4c(N)c3C(C1)C2 (stereo unspecified)", "TGI": "28.2 µM"}
{"molecule": "CCOC(=O)C1C(c2ccc(OC)cc2)c2c([nH][nH]c2=O)CC1(O)OCC (stereo unspecified)", "TGI": "> 100 µM"}
{"molecule": "COc1cccc(-c2nc3sccn3c2-c2ccnc(NCCNS(=O)(=O)c3ccccc3)c2)c1", "TGI": "> 100 µM"}
{"molecule": "O=C(O)c1ccc(Nc2nc3ccccc3nc2-c2cccs2)cc1", "TGI": "> 100 µM"}
